- Test conditions: 283.15 K; 3000 kPa; Liquid
Endpoint name: mass density (kg/m3)
Dear colleague, please return just the value in kg/m3, with no unit written.

Consider the following illustrative entries.
{"Compound": "CCCCCCCCCCCCCC[P+](CCCCCC)(CCCCCC)CCCCCC.[Cl-] [trihexyl(tetradecyl)phosphonium chloride]", "Reading unit": "kg/m3", "Recorded measurement": 899.8}
{"Compound": "CCCCCCCCCCCCCC[P+](CCCCCC)(CCCCCC)CCCCCC.O=S(=O)([N-]S(=O)(=O)C(F)(F)F)C(F)(F)F", "Reading unit": "kg/m3", "Recorded measurement": 1079}

Inquiry: Assign mass density to the following record: CCCCCCCCCCCCCC[P+](CCCCCC)(CCCCCC)CCCCCC.N#C[N-]C#N [tetradecyl(trihexyl)phosphonium dicyanamide]
Reply text: 908.9

Inquiry: Assign mass density to the following record: CCCCCCCCCCCCCC[P+](CCCCCC)(CCCCCC)CCCCCC.[Br-] [tetradecyltrihexylphosphonium bromide]
Reply text: 964.2

Inquiry: Assign mass density to the following record: CCCCCCCCCCCCCC[P+](CCCCCC)(CCCCCC)CCCCCC.CS(=O)(=O)[O-] [trihexyltetradecylphosphonium methanesulfonate]
Reply text: 939.5

* * *

List of mass density values.
- Test conditions: 303.15 K; 3000 kPa; Liquid
Dear colleague, please return just the value in kg/m3, with no unit written.

Inquiry: Assign mass density to the following record: CCCCCCCCCCCCCC[P+](CCCCCC)(CCCCCC)CCCCCC.CS(=O)(=O)[O-] [trihexyltetradecylphosphonium methanesulfonate]
Reply text: 927.3

Inquiry: Assign mass density to the following record: CCCCCCCCCCCCCC[P+](CCCCCC)(CCCCCC)CCCCCC.[Br-] [tetradecyltrihexylphosphonium bromide]
Reply text: 952

Inquiry: Assign mass density to the following record: CCCCCCCCCCCCCC[P+](CCCCCC)(CCCCCC)CCCCCC.[Cl-] [trihexyl(tetradecyl)phosphonium chloride]
Reply text: 888

Inquiry: Assign mass density to the following record: CCCCCCCCCCCCCC[P+](CCCCCC)(CCCCCC)CCCCCC.O=S(=O)([N-]S(=O)(=O)C(F)(F)F)C(F)(F)F
Reply text: 1064.5

Inquiry: Assign mass density to the following record: CCCCCCCCCCCCCC[P+](CCCCCC)(CCCCCC)CCCCCC.N#C[N-]C#N [tetradecyl(trihexyl)phosphonium dicyanamide]
Reply text: 897.4

* * *

- Test conditions: 283.15 K; 40000 kPa; Liquid
Consider the cut-off 1000 kg/m3. If the recorded mass density is strictly smaller, the label is label 1; if not, the label is label 0.

Worked examples follow.
{"Compound": "CCCCCCCCCCCCCC[P+](CCCCCC)(CCCCCC)CCCCCC.O=S(=O)([N-]S(=O)(=O)C(F)(F)F)C(F)(F)F", "Assigned category": "label 0"}
{"Compound": "CCCCCCCCCCCCCC[P+](CCCCCC)(CCCCCC)CCCCCC.N#C[N-]C#N [tetradecyl(trihexyl)phosphonium dicyanamide]", "Assigned category": "label 1"}
{"Compound": "CCCCCCCCCCCCCC[P+](CCCCCC)(CCCCCC)CCCCCC.CS(=O)(=O)[O-] [trihexyltetradecylphosphonium methanesulfonate]", "Assigned category": "label 1"}

Would you kindly look at the next entry?
Inquiry: Identify whether the compound CCCCCCCCCCCCCC[P+](CCCCCC)(CCCCCC)CCCCCC.[Cl-] [trihexyl(tetradecyl)phosphonium chloride] records mass density below 1000 kg/m3.
Reply text: label 1

* * *

- Test conditions: 333.15 K; 40000 kPa; Liquid
List of mass density values.
Dear colleague, please return just the value in kg/m3, with no unit written.

Consider the following illustrative entries.
{"Compound": "CCCCCCCCCCCCCC[P+](CCCCCC)(CCCCCC)CCCCCC.O=S(=O)([N-]S(=O)(=O)C(F)(F)F)C(F)(F)F", "mass density [kg/m3]": 1066.2}
{"Compound": "CCCCCCCCCCCCCC[P+](CCCCCC)(CCCCCC)CCCCCC.[Br-] [tetradecyltrihexylphosphonium bromide]", "mass density [kg/m3]": 954.9}
{"Compound": "CCCCCCCCCCCCCC[P+](CCCCCC)(CCCCCC)CCCCCC.[Cl-] [trihexyl(tetradecyl)phosphonium chloride]", "mass density [kg/m3]": 889.6}
{"Compound": "CCCCCCCCCCCCCC[P+](CCCCCC)(CCCCCC)CCCCCC.N#C[N-]C#N [tetradecyl(trihexyl)phosphonium dicyanamide]", "mass density [kg/m3]": 898.3}

Inquiry: Assign mass density to the following record: CCCCCCCCCCCCCC[P+](CCCCCC)(CCCCCC)CCCCCC.CS(=O)(=O)[O-] [trihexyltetradecylphosphonium methanesulfonate]
Reply text: 930.2

* * *

- Test conditions: 333.15 K; 100 kPa; Liquid
Endpoint name: mass density (kg/m3)
Dear colleague, please return just the value in kg/m3, with no unit written.

Inquiry: Assign mass density to the following record: CCCCCCCCCCCCCC[P+](CCCCCC)(CCCCCC)CCCCCC.[Cl-] [trihexyl(tetradecyl)phosphonium chloride]
Reply text: 868.9

* * *

- Test conditions: 293.15 K; 2000 kPa; Liquid
Endpoint name: mass density (kg/m3)
Dear colleague, please return just the value in kg/m3, with no unit written.

Consider the following illustrative entries.
{"Compound": "CCCCCCCCCCCCCC[P+](CCCCCC)(CCCCCC)CCCCCC.N#C[N-]C#N [tetradecyl(trihexyl)phosphonium dicyanamide]", "Endpoint name": "mass density", "Recorded measurement": 902.6}
{"Compound": "CCCCCCCCCCCCCC[P+](CCCCCC)(CCCCCC)CCCCCC.[Br-] [tetradecyltrihexylphosphonium bromide]", "Endpoint name": "mass density", "Recorded measurement": 957.6}
{"Compound": "CCCCCCCCCCCCCC[P+](CCCCCC)(CCCCCC)CCCCCC.O=S(=O)([N-]S(=O)(=O)C(F)(F)F)C(F)(F)F", "Endpoint name": "mass density", "Recorded measurement": 1071.2}
{"Compound": "CCCCCCCCCCCCCC[P+](CCCCCC)(CCCCCC)CCCCCC.CS(=O)(=O)[O-] [trihexyltetradecylphosphonium methanesulfonate]", "Endpoint name": "mass density", "Recorded measurement": 932.8}

Inquiry: Assign mass density to the following record: CCCCCCCCCCCCCC[P+](CCCCCC)(CCCCCC)CCCCCC.[Cl-] [trihexyl(tetradecyl)phosphonium chloride]
Reply text: 893.4

* * *

- Test conditions: 293.15 K; 45000 kPa; Liquid
List of mass density values.
Dear colleague, please return just the value in kg/m3, with no unit written.

Consider the following illustrative entries.
{"Molecule": "CCCCCCCCCCCCCC[P+](CCCCCC)(CCCCCC)CCCCCC.[Cl-] [trihexyl(tetradecyl)phosphonium chloride]", "mass density, kg/m3": 912.4}
{"Molecule": "CCCCCCCCCCCCCC[P+](CCCCCC)(CCCCCC)CCCCCC.N#C[N-]C#N [tetradecyl(trihexyl)phosphonium dicyanamide]", "mass density, kg/m3": 920.9}
{"Molecule": "CCCCCCCCCCCCCC[P+](CCCCCC)(CCCCCC)CCCCCC.O=S(=O)([N-]S(=O)(=O)C(F)(F)F)C(F)(F)F", "mass density, kg/m3": 1093.9}
{"Molecule": "CCCCCCCCCCCCCC[P+](CCCCCC)(CCCCCC)CCCCCC.CS(=O)(=O)[O-] [trihexyltetradecylphosphonium methanesulfonate]", "mass density, kg/m3": 953.9}

Now for a further molecule.
Inquiry: Assign mass density to the following record: CCCCCCCCCCCCCC[P+](CCCCCC)(CCCCCC)CCCCCC.[Br-] [tetradecyltrihexylphosphonium bromide]
Reply text: 978.8

* * *

- Test conditions: 333.15 K; 25000 kPa; Liquid
Endpoint name: mass density (kg/m3)
Dear colleague, please return just the value in kg/m3, with no unit written.

Consider the following illustrative entries.
{"Molecule": "CCCCCCCCCCCCCC[P+](CCCCCC)(CCCCCC)CCCCCC.[Cl-] [trihexyl(tetradecyl)phosphonium chloride]", "Endpoint name": "mass density", "Recorded measurement": 882.5}
{"Molecule": "CCCCCCCCCCCCCC[P+](CCCCCC)(CCCCCC)CCCCCC.[Br-] [tetradecyltrihexylphosphonium bromide]", "Endpoint name": "mass density", "Recorded measurement": 946.8}
{"Molecule": "CCCCCCCCCCCCCC[P+](CCCCCC)(CCCCCC)CCCCCC.CS(=O)(=O)[O-] [trihexyltetradecylphosphonium methanesulfonate]", "Endpoint name": "mass density", "Recorded measurement": 922.3}
{"Molecule": "CCCCCCCCCCCCCC[P+](CCCCCC)(CCCCCC)CCCCCC.O=S(=O)([N-]S(=O)(=O)C(F)(F)F)C(F)(F)F", "Endpoint name": "mass density", "Recorded measurement": 1057.4}

Now for a further molecule.
Inquiry: Assign mass density to the following record: CCCCCCCCCCCCCC[P+](CCCCCC)(CCCCCC)CCCCCC.N#C[N-]C#N [tetradecyl(trihexyl)phosphonium dicyanamide]
Reply text: 891.4

src = the NIST ThermoML archive (doi:10.1021/je101232g)
